Potency overview
Experiment Description: qHTS Assay for Identification of Small Molecule Agonists for Hypoxia Response Element Signaling Pathway (AID 914); also: potency is read from the fitted curve at half-maximal effect
Condition Summary: ME-180 (cervical carcinoma) HRE-bla reporter, beta-lactamase ratio, CoCl2, 17 h
Inconclusive results are not listed. Calls of active or inactive are those of the source. Calls follow the shape of the dose curve; as a rule, active = well fitted activation curve with a large enough effect in the signal ratio, with a control signal flat (not every such curve was filed as active); inconclusive = small, poorly fitted or top-dose-only effect, or effect the other way, or a change in a side signal; inactive = flat fitted curve, though single readings scatter; the % refers to the signal ratio.
Quantity Name: Potency

>>> measured_value("CCNc1ncc2nc(-c3ccc(Cl)cc3)c(=O)n(Cc3ccc(F)cc3)c2n1")
"0.1 µM (active)"
>>> measured_value("COc1ccc(-c2nc3cnc(N4CCNCC4)nc3n(CCC#N)c2=O)cc1")
"3.16 µM (active)"
>>> measured_value("CCNc1ncc2nc(-c3ccc(F)cc3)c(=O)n(-c3ccccc3)c2n1")
"3.16 µM (active)"
>>> measured_value("O=c1c(-c2cccs2)nc2cnc(Oc3cccc(Cl)c3)nc2n1C[C@H]1CCCO1")
"3.16 µM (active)"
>>> measured_value("CN(C)c1ncc2nc(-c3ccc(F)cc3)c(=O)n(C3CC3)c2n1")
"2.51 µM (active)"
>>> measured_value("CN1CCN(c2ncc3nc(-c4cn(C)c5ccccc45)c(=O)n(CCc4ccccc4)c3n2)CC1")
"3.16 µM (active)"
>>> measured_value("CCNc1ncc2nc(-c3ccccc3)c(=O)n(CCc3ccccc3)c2n1")
"1.58 µM (active)"
>>> measured_value("O=c1c(-c2ccc(F)cc2)nc2cnc(N3CCOCC3)nc2n1CCc1ccccc1")
"0.501 µM (active)"
>>> measured_value("Cc1noc(C)c1-c1ccc2ncnc(NCc3ccccc3)c2c1")
"3.16 µM (active)"
>>> measured_value("CCNc1ncc2nc(-c3cc(F)cc(F)c3)c(=O)n(Cc3ccc(F)cc3)c2n1")
"2 µM (active)"
>>> measured_value("Cn1c(=O)c(-c2ccccc2)nc2cnc(N3CCNCC3)nc21")
"3.16 µM (active)"

----------
System: Cytochrome P450 2C9 (Homo sapiens)
Experiment Description: qHTS Assay for Inhibitors and Substrates of Cytochrome P450 2C9 (AID 883); also: % is scaled to controls: 0 for no effect and ±100 for the full control effect; nearly all actives have a fitted effect of over 60% in size
Condition Summary: recombinant CYP2C9, luciferin-H luminescence, 60 min; series mostly up to 57.1 µM
Inconclusive results are not listed. Active and inactive are the calls of the source. The call rests on the fitted dose curve; in most records, active means well fitted inhibition curve with a large enough effect; inconclusive means small, poorly fitted or top-dose-only effect; inactive means no such curve, though single readings can be large or run the other way.
Listed molecules paired with reported activity change, negative = inhibition
Quantity Name: activity change, negative = inhibition

>>> measured_value("CNc1nc(-c2ccc(N(C)C)cc2)nc2ccccc12")
"108% [at 2.29 µM] (inactive)"
>>> measured_value("CS(=O)(=O)Nc1cccc(-c2cc(Nc3ccccc3)ncn2)c1")
"56.3% [at 2.29 µM] (inactive)"
>>> measured_value("Cc1cnc(CNc2cc(-c3ccccc3C(F)(F)F)ncn2)cn1")
"49.4% [at 2.29 µM] (inactive)"
>>> measured_value("CNc1nc(-c2cccnc2)nc2ccccc12")
"82.3% [at 2.29 µM] (inactive)"
>>> measured_value("CN(C)C(=O)c1ccc(-c2nc(N(C)C)c3ccccc3n2)cc1")
"29.4% [at 2.29 µM] (inactive)"
>>> measured_value("COc1ccccc1CNc1cc(-c2cccc(NS(C)(=O)=O)c2)ncn1")
"33% [at 2.29 µM] (inactive)"
>>> measured_value("CN(C)c1ccc(-c2nc(N(C)C)c3ccccc3n2)cc1")
"118% [at 2.29 µM] (inactive)"
>>> measured_value("COc1ccccc1CNc1cc(-c2ccccc2OC)ncn1")
"31.3% [at 2.29 µM] (inactive)"
>>> measured_value("Cc1cnc(CNc2ncnc3ccc(-c4ccccc4CN(C)C)cc23)cn1")
"39% [at 2.29 µM] (inactive)"
>>> measured_value("Cc1noc(C)c1-c1nccc(NC2CC2)n1")
"3.44% [at 2.29 µM] (inactive)"
>>> measured_value("Cc1cnc(CNc2ncnc3ccc(-c4cccc(NS(C)(=O)=O)c4)cc23)cn1")
"32.5% [at 2.29 µM] (inactive)"
>>> measured_value("CN(C)c1nc(-c2cccnc2)nc2ccccc12")
"81% [at 2.29 µM] (inactive)"
>>> measured_value("Cc1cccc(CNc2ccnc(-c3ccccc3CN(C)C)n2)c1")
"13.9% [at 2.29 µM] (inactive)"
>>> measured_value("CN1CCN(c2ncncc2-c2ccc(N(C)C)cc2)CC1")
"36.5% [at 2.29 µM] (inactive)"
>>> measured_value("CN(Cc1ccco1)c1cc(-c2cccc(C#N)c2)ncn1")
"12.3% [at 2.29 µM] (inactive)"
>>> measured_value("CN(C)c1nc(-c2ccccc2C(F)(F)F)nc2ccccc12")
"37.2% [at 2.29 µM] (inactive)"
>>> measured_value("CC(=O)NCCNc1nc(-c2ccccc2C)nc2ccccc12")
"46.4% [at 2.29 µM] (inactive)"
>>> measured_value("COc1ccccc1CNc1cc(-c2ccccc2C(F)(F)F)ncn1")
"8.84% [at 2.29 µM] (inactive)"
